Test system: Enterococcus faecalis
assay text: Antibacterial activity against Enterococcus faecalis by broth microdilution method
Assay type: functional
reported metric: MIC90

>>> value("CC(=O)NC[C@H]1CN(c2cc(F)c(N3CC(C)(O)C3)c(F)c2)C(=O)O1")
"4 µg/mL"
>>> value("CCC1(O)CCN(c2c(F)cc(N3C[C@H](CNC(C)=O)OC3=O)cc2F)CC1")
"2 µg/mL"
>>> value("CC(=O)NC[C@H]1CN(c2cc(F)c(N3CCC(C)(CC#N)CC3)c(F)c2)C(=O)O1")
"1 µg/mL"
>>> value("CC(=O)NC[C@H]1CN(c2cc(F)c(N3CC(O)(C(F)(F)F)C3)c(F)c2)C(=O)O1")
"2 µg/mL"
>>> value("CCC1(O)CN(c2c(F)cc(N3C[C@H](CNC(C)=O)OC3=O)cc2F)C1")
"2 µg/mL"
>>> value("CC(=O)NC[C@H]1CN(c2cc(F)c(N3CC(C)(F)C3)c(F)c2)C(=O)O1")
"2 µg/mL"
>>> value("CC(=O)NC[C@H]1CN(c2ccc(N3CCOCC3)c(F)c2)C(=O)O1")
"4 µg/mL"
>>> value("CC(=O)NC[C@H]1CN(c2cc(F)c(N3CCC(O)CC3)c(F)c2)C(=O)O1")
"2 µg/mL"
>>> value("COC1CN(c2c(F)cc(N3C[C@H](CNC(C)=O)OC3=O)cc2F)C1")
"2 µg/mL"
>>> value("CC(=O)NC[C@H]1CN(c2cc(F)c(N3CC(F)C3)c(F)c2)C(=O)O1")
"2 µg/mL"
>>> value("CC(=O)NC[C@H]1CN(c2cc(F)c(N3CCC(CC#N)CC3)c(F)c2)C(=O)O1")
"1 µg/mL"
>>> value("CC(=O)NC[C@H]1CN(c2cc(F)c(N3CC(O)C3)c(F)c2)C(=O)O1")
"2 µg/mL"
>>> value("CC(=O)NC[C@H]1CN(c2cc(F)c(N3CCC(C)(O)CC3)c(F)c2)C(=O)O1")
"2 µg/mL"
>>> value("COC1(C)CN(c2c(F)cc(N3C[C@H](CNC(C)=O)OC3=O)cc2F)C1")
"4 µg/mL"

###

Tested on: Staphylococcus aureus
assay text: Antibacterial activity against Staphylococcus aureus by broth microdilution method
Type: functional
reported metric: MIC90 (µg/mL)

>>> value("CC(=O)NC[C@H]1CN(c2cc(F)c(N3CCC(CC#N)CC3)c(F)c2)C(=O)O1")
2
>>> value("CCC1(O)CCN(c2c(F)cc(N3C[C@H](CNC(C)=O)OC3=O)cc2F)CC1")
4
>>> value("CC(=O)NC[C@H]1CN(c2cc(F)c(N3CCC(O)CC3)c(F)c2)C(=O)O1")
2

Source: ChEMBL document CHEMBL1146253
